- target-or-test-system: High affinity choline transporter 1 (Homo sapiens)
- protocol-summary: inhibitors of human choline transporter CHT (AID 488975)
- applied-conditions: CHT-expressing cells, membrane potential dye, choline response, at 10 µM
The whole screen tested about 310,000 compounds, of which about 2,600 (0.84%) were called active.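 Rule for the calls: active = B-score over 3 SD under the library average, and starting fluorescence ratio not unusually high; inactive = the rest.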 This is one part of a sample in which actives are shown more often than they occur.
Classes used: t for active, f for inactive

[[record]]
compound = "CCC(C(=O)N1CCOCC1)n1c(C(=O)OC)cc2occc21 (centres undefined)"
answer_label = "t"

[[record]]
compound = "COc1ccc(C(=O)NCC2CCCN2S(=O)(=O)c2cccs2)cc1OC (centres undefined)"
answer_label = "f"

[[record]]
compound = "COc1ccc2oc(C(=O)N(CC(C)C)C3CCS(=O)(=O)C3)c(C)c2c1 (centres undefined)"
answer_label = "f"

[[record]]
compound = "Cc1cccc(N(C)C(=O)CN2C(=O)COc3ccc(S(=O)(=O)N4CCCCCC4)cc32)c1"
answer_label = "t"


---

- target-or-test-system: High affinity choline transporter 1 (Homo sapiens) (UniProt Q9GZV3)
- Sequence (Q9GZV3 whole entry, looked up): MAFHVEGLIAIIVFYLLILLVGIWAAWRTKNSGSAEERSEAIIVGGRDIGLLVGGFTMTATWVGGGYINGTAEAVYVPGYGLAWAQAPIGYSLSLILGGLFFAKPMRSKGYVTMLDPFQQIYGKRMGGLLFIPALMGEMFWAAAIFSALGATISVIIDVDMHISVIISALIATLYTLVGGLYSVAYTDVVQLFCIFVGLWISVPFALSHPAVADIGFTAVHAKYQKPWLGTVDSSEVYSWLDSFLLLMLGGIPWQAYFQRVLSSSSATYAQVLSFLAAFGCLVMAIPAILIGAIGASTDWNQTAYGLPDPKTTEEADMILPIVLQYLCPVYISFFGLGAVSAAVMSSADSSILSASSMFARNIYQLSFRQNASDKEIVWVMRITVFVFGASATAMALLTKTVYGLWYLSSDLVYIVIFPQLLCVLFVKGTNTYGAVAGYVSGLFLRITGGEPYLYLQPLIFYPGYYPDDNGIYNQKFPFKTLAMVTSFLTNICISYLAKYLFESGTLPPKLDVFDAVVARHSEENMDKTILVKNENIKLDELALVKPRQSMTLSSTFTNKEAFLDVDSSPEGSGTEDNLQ
- protocol-summary: inhibitors of human choline transporter CHT (AID 488975)
- applied-conditions: CHT-expressing cells, membrane potential dye, choline response, at 10 µM
Screen size: about 310,000 compounds; about 2,600 (0.84%) were called active.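 How the source made its calls: active means B-score over 3 SD under the library average, and starting fluorescence ratio not unusually high; inactive means the rest.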 The list comes from a sample in which actives are over-represented; it also holds close analogues and randomly drawn compounds.
Classes used: active, inactive

[[record]]
molecule = "O=C(NNC(=O)c1ccc(Cl)cc1Cl)c1cccs1"
answer_label = "inactive"

[[record]]
molecule = "Cc1ccc2c(C)c(C(=O)N3CCN(c4ccncc4)CC3)oc2c1C"
answer_label = "inactive"

[[record]]
molecule = "O=S(=O)(Cc1cc(Cl)nc(-c2cccnc2)n1)c1ccccc1"
answer_label = "active"

[[record]]
molecule = "CCN1C(=O)[C@@H]2[C@@H](c3ccc(-c4ccccc4)cc3)N3CCCC[C@@]3(C(=O)OC)[C@@H]2C1=O"
answer_label = "inactive"

[[record]]
molecule = "CCN1C(=O)[C@H]2[C@@H](c3ccc(-c4ccc(F)cc4)cc3)N[C@@](Cc3ccccc3)(C(=O)OC)[C@H]2C1=O"
answer_label = "inactive"

[[record]]
molecule = "C=CCOc1ccc(/C=C/C(=O)OCC(=O)NC(C)c2ccc(F)cc2)cc1 (centres undefined)"
answer_label = "inactive"

[[record]]
molecule = "CCN(C(=O)COC(=O)C1CCN(S(=O)(=O)c2ccc(C)c(C)c2)CC1)C1CCS(=O)(=O)C1 (centres undefined)"
answer_label = "inactive"

[[record]]
molecule = "CCc1ccc2c(c1)C(c1ccc([N+](=O)[O-])cc1)=NNC(c1ccccc1)=N2"
answer_label = "inactive"

[[record]]
molecule = "COc1ccc2oc(C(=O)OCC(=O)N(CC(C)C)c3c(N)n(Cc4ccccc4)c(=O)[nH]c3=O)c(C)c2c1"
answer_label = "inactive"

[[record]]
molecule = "CCN1C(=O)[C@H]2[C@@H](c3ccc(C)cc3)N3C(=O)N(c4cccc(Br)c4)C(=O)[C@@]3(CC)[C@H]2C1=O"
answer_label = "inactive"

[[record]]
molecule = "COc1ccc(Cl)cc1NC(=O)CN(C)C(=O)c1cc(-c2cccs2)nn1-c1ccccc1"
answer_label = "inactive"

[[record]]
molecule = "Cc1cccc(-n2ncc(Cl)c(Cl)c2=O)c1"
answer_label = "active"

[[record]]
molecule = "CC(OC(=O)CCCOc1ccccc1)C(=O)Nc1ccc(Cl)cn1 (centres undefined)"
answer_label = "inactive"

[[record]]
molecule = "Cc1ccc(NNC(=O)c2c(F)cccc2Cl)cc1Cl"
answer_label = "inactive"

[[record]]
molecule = "COc1ccc2c(c1)[C@H]1[C@H](CO2)[C@H](c2ccccc2)[C@]2(C)C(=O)Nc3cc(F)c(F)cc3C(=O)N12"
answer_label = "inactive"

[[record]]
molecule = "O=C(Cn1nc(C(F)(F)F)c2c1CCC2)NCc1ccc(F)cc1"
answer_label = "active"

[[record]]
molecule = "O=S(=O)(Cc1cc(Sc2ccccc2)nc(-c2ccccc2)n1)c1ccccc1"
answer_label = "inactive"

[[record]]
molecule = "CCc1ccc2c(c1)C1(NN=C(c3ccccc3)S1)C(=O)N2 (centres undefined)"
answer_label = "active"

[[record]]
molecule = "CN(Cc1ccccc1)CC(O)COc1ccc(CNCc2cc3ccccc3s2)cc1 (centres undefined)"
answer_label = "active"


---

- target-or-test-system: High affinity choline transporter 1 (Homo sapiens) (UniProt Q9GZV3)
- protocol-summary: inhibitors of human choline transporter CHT (AID 488975)
- applied-conditions: CHT-expressing cells, membrane potential dye, choline response, at 10 µM
Among all 310,000 compounds or so, about 2,600 (0.84%) were called active.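 The calls were made as follows: active = B-score over 3 SD under the library average, and starting fluorescence ratio not unusually high; inactive = the rest.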 What follows is part of a selection rich in actives, with near analogues and random picks from the rest.
Classes used: yes for active, no for inactive

[[record]]
compound = "COc1ccc(CCNc2cc(N3CCN(C(=O)c4ccccc4OC)CC3)ccc2[N+](=O)[O-])cc1OC"
answer_label = "no"

[[record]]
compound = "FC(F)(F)c1ccc2c3n(nc2c1)CCN=C3c1ccc(Cl)cc1"
answer_label = "no"

[[record]]
compound = "CCOC(=O)N1CCN(C(=O)CN(c2ccc(C)c(C)c2)S(=O)(=O)c2ccccc2)CC1"
answer_label = "no"

[[record]]
compound = "CCCn1c(=S)[nH]c2ccc(C(F)(F)F)cc21"
answer_label = "no"

[[record]]
compound = "CN(C)Cc1c(C(=O)N/N=C/c2ccccc2OCc2ccc(F)cc2)nnn1-c1nonc1N"
answer_label = "no"

[[record]]
compound = "Cc1nc2ccccc2c(=O)n1-c1ccc(NS(=O)(=O)c2ccc(F)cc2F)cc1"
answer_label = "no"

[[record]]
compound = "CCN1CN(Cc2ccccc2)CNC1=S"
answer_label = "no"

[[record]]
compound = "CCOC(=O)N1CCN(C(=O)c2ccccc2SCC(=O)NCC2CCCCC2)CC1"
answer_label = "no"

[[record]]
compound = "COc1ccccc1OCCCCCCN1CCN(C)CC1"
answer_label = "no"

[[record]]
compound = "CC(C)CN(C(=O)COC(=O)c1ccc(Cl)c(N)c1)c1c(N)n(Cc2ccccc2)c(=O)[nH]c1=O"
answer_label = "no"

[[record]]
compound = "COc1ccc(Cl)cc1CSc1ncn[nH]1"
answer_label = "no"

[[record]]
compound = "Cc1c(Cl)c([N+](=O)[O-])nn1CC(=O)NCC1CCCO1 (configuration not stated)"
answer_label = "no"

[[record]]
compound = "Cc1ccc(N(Cc2ccc(C(=O)Nc3ccccc3C(=O)NCc3ccco3)cc2)S(C)(=O)=O)cc1C"
answer_label = "no"

[[record]]
compound = "Cc1cc(=O)[nH]c(SCc2cc(Cl)ccc2OC(F)F)n1"
answer_label = "no"

[[record]]
compound = "COc1ccc(OCCC(=O)c2ccc(OC)cc2)cc1"
answer_label = "no"

[[record]]
compound = "Nc1nnc(SCn2nnc3ccccc3c2=O)s1"
answer_label = "no"

[[record]]
compound = "COCc1c(C(=O)N/N=C\\c2cccnc2)nnn1-c1nonc1N"
answer_label = "no"

[[record]]
compound = "C/C(=N\\Nc1nc2ccccc2[nH]1)c1cccs1"
answer_label = "yes"

[[record]]
compound = "CCCCn1c(N)c(N(CC(C)C)C(=O)c2ccc(Br)o2)c(=O)[nH]c1=O"
answer_label = "no"

[[record]]
compound = "CN(CCO)c1ccc(/C=N/Nc2nncc3ccccc23)cc1"
answer_label = "no"

[[record]]
compound = "CC(=O)c1c(C)[nH]c(C(=O)COC(=O)CCOc2ccc(C)cc2)c1C"
answer_label = "no"

[[record]]
compound = "O=C(NC1CCCCC1)c1ccc2c(=O)n(CC3CCCO3)c(=O)[nH]c2c1 (configuration not stated)"
answer_label = "no"

[[record]]
compound = "COc1ccc(/C=C2\\SC(=S)N(CCCC(=O)NC3CCCC3)C2=O)cc1OC"
answer_label = "no"

[[record]]
compound = "COc1ccc(CCNC(=O)C(=O)NCC2OCCN2S(=O)(=O)c2cccs2)cc1OC (configuration not stated)"
answer_label = "no"

[[record]]
compound = "CCN(CC)Cc1c(C(=O)N/N=C/c2cccc(OCc3ccc(F)cc3)c2)nnn1-c1nonc1N"
answer_label = "yes"

[[record]]
compound = "Cc1ccnc(NC(=O)c2ccco2)n1"
answer_label = "no"

[[record]]
compound = "COc1ccc(Cc2nnc(SCC(=O)Nc3ccc(C)c(Cl)c3)[nH]c2=O)cc1"
answer_label = "no"

